Readings of MSA Binding (RU) for the listed binders
testTarget: T1, mouse serum albumin (MSA), full length (mouse, UniProt P07724 25-608)
T1 construct: mature; Immobilized on CM5 chip (SPR) or coated on plates (ELISA); also called mouse albumin; murine serum albumin
testMethodNotes: SPR, immobilized MSA, 500 nM Adnectin, 25 C
A bare number is not enough; add the unit after it.

Example results:
**Query** Suppose we examine the binder ADX_6727_D03 (L41S) (designed binder, Full His6-tagged entry) MGVSDVPRDLEVVAATPTSLLISWDAPAVTVRYYRITYGREVQKYSDLGPSYIYQEFTVPGSKSTATISGLKPGVDYTITVYAVTGSGESPASSKPISINYRTEIDKPSQHHHHHH ; what MSA Binding (RU) value has been reported?
**Result** 43 RU

**Query** Suppose we examine the binder ADX_6727_F07 (Y44S/K85A) (designed binder, Full His6-tagged entry) MGVSDVPRDLEVVAATPTSLLISWDAPAVTVRYYRITYGREVQKYSDLGPLYISQEFTVPGSKSTATISGLKPGVDYTITVYAVTGSGESPASSAPISINYRTEIDKPSQHHHHHH ; what MSA Binding (RU) value has been reported?
**Result** 62 RU

**Query** Suppose we examine the binder ADX_6727_H06 (Y44Q/K85T) (designed binder, Full His6-tagged entry) MGVSDVPRDLEVVAATPTSLLISWDAPAVTVRYYRITYGREVQKYSDLGPLYIQQEFTVPGSKSTATISGLKPGVDYTITVYAVTGSGESPASSTPISINYRTEIDKPSQHHHHHH ; what MSA Binding (RU) value has been reported?
**Result** 43 RU

**Query** Suppose we examine the binder ADX_6727_G06 (Y35A/K85S) (designed binder, Full His6-tagged entry) MGVSDVPRDLEVVAATPTSLLISWDAPAVTVRYYRITYGREVQKASDLGPLYIYQEFTVPGSKSTATISGLKPGVDYTITVYAVTGSGESPASSSPISINYRTEIDKPSQHHHHHH ; what MSA Binding (RU) value has been reported?
**Result** 66 RU

New cases:
**Query** Suppose we examine the binder ADX_6727_H10 (L41S/K85S) (designed binder, Full His6-tagged entry) MGVSDVPRDLEVVAATPTSLLISWDAPAVTVRYYRITYGREVQKYSDLGPSYIYQEFTVPGSKSTATISGLKPGVDYTITVYAVTGSGESPASSSPISINYRTEIDKPSQHHHHHH ; what MSA Binding (RU) value has been reported?
**Result** 35 RU

**Query** Suppose we examine the binder ADX_7016_A01 (parent PKE2 Adnectin) (designed binder, N-terminal Met may be cleaved; also called 2629_E06; ADX_2629_E06) MGVSDVPRDLEVVAATPTSLLISWDAPAVTVRYYRITYGREVQKYSDLGPLYIYQEFTVPGSKSTATISGLKPGVDYTITVYAVTGSGESPASSKPISINYRTEIDKPSQHHHHHH ; what MSA Binding (RU) value has been reported?
**Result** 95 RU

**Query** Suppose we examine the binder ADX_7016_E02 (L38T) (designed binder, Full His6-tagged entry; also called 6727_E08) MGVSDVPRDLEVVAATPTSLLISWDAPAVTVRYYRITYGREVQKYSDTGPLYIYQEFTVPGSKSTATISGLKPGVDYTITVYAVTGSGESPASSKPISINYRTEIDKPSQHHHHHH ; what MSA Binding (RU) value has been reported?
**Result** 30 RU

**Query** Suppose we examine the binder ADX_7016_C03 (Y44Q) (designed binder, Full His6-tagged entry; also called 6727_B03) MGVSDVPRDLEVVAATPTSLLISWDAPAVTVRYYRITYGREVQKYSDLGPLYIQQEFTVPGSKSTATISGLKPGVDYTITVYAVTGSGESPASSKPISINYRTEIDKPSQHHHHHH ; what MSA Binding (RU) value has been reported?
**Result** 33 RU

**Query** Suppose we examine the binder ADX_6727_B04 (Y35S/K85S) (designed binder, Full His6-tagged entry) MGVSDVPRDLEVVAATPTSLLISWDAPAVTVRYYRITYGREVQKSSDLGPLYIYQEFTVPGSKSTATISGLKPGVDYTITVYAVTGSGESPASSSPISINYRTEIDKPSQHHHHHH ; what MSA Binding (RU) value has been reported?
**Result** 62 RU

**Query** Suppose we examine the binder ADX_6727_F10 (Y35A/K85T) (designed binder, Full His6-tagged entry) MGVSDVPRDLEVVAATPTSLLISWDAPAVTVRYYRITYGREVQKASDLGPLYIYQEFTVPGSKSTATISGLKPGVDYTITVYAVTGSGESPASSTPISINYRTEIDKPSQHHHHHH ; what MSA Binding (RU) value has been reported?
**Result** 55 RU
